Values from ChEMBL document CHEMBL1148632

# system: Replicase polyprotein 1a (Severe acute respiratory syndrome-related coronavirus, UniProt P0C6U8)
# experiment_notes: Inhibition of SARS coronavirus 3C-like protease
# condition_label: read-out: IC50
measure: pIC50
Units for pIC50: none; it is -log10 of a concentration expressed in mol/L.

Prompt: Supply reported pIC50 belonging to this compound: Cn1nc(-c2ccc(-c3ccnc(SCC(=O)Nc4ccc(Cl)cc4)n3)s2)cc1C(F)(F)F
Completion: 5.00

Prompt: Supply reported pIC50 belonging to this compound: O=C(CSc1nccc(-c2cc(-c3ccc(Cl)cc3Cl)no2)n1)Nc1ccc(C(F)(F)F)cc1
Completion: 4.82

Prompt: Supply reported pIC50 belonging to this compound: CSc1sc(-c2nc(C)cs2)c(C)c1-c1ccnc(SCC(=O)Nc2ccc(Cl)cc2)n1
Completion: 4.96

Prompt: Supply reported pIC50 belonging to this compound: O=C(CSc1nccc(-c2cc(-c3ccccc3)no2)n1)Nc1ccc(Cl)cc1
Completion: 4.82

Prompt: Supply reported pIC50 belonging to this compound: Cc1nc(-c2nc(-c3ccnc(SCC(=O)Nc4ccc(Cl)cc4)n3)cs2)cs1
Completion: 4.85

Prompt: Supply reported pIC50 belonging to this compound: COC(OC)c1cc(O)nc(SCC(=O)Nc2ccc(C(F)(F)F)cc2)n1
Completion: 3.70

Prompt: Supply reported pIC50 belonging to this compound: CCCc1cc(O)nc(SCC(=O)Nc2ccc(Cl)cc2)n1
Completion: 4.52

Prompt: Supply reported pIC50 belonging to this compound: CC(C)(C)c1ccc(NC(=O)CSc2nc(C3CCCCC3)c(C#N)c(=O)[nH]2)cc1
Completion: 3.46

Prompt: Supply reported pIC50 belonging to this compound: CC(C)c1ccc(NC(=O)CSc2nccc(-c3csc(COc4ccccc4Cl)n3)n2)cc1
Completion: 3.70

Prompt: Supply reported pIC50 belonging to this compound: N#Cc1c(-c2ccccc2)nc(SCC(=O)Nc2cccc(C(F)(F)F)c2)[nH]c1=O
Completion: 3.70

Prompt: Supply reported pIC50 belonging to this compound: CC(Sc1nc(-c2ccccc2)c(C#N)c(=O)[nH]1)C(=O)Nc1ccc(Cl)cc1 (stereo unspecified)
Completion: 3.52

Prompt: Supply reported pIC50 belonging to this compound: COc1ccc(NC(=O)CSc2nc(O)cc(-c3ccccc3)n2)cc1OC
Completion: 4.35

Prompt: Supply reported pIC50 belonging to this compound: CCCCc1ccc(NC(=O)CSc2nc(O)c(C#N)c(C3CCCCC3)n2)c(C)c1
Completion: 3.70

Prompt: Supply reported pIC50 belonging to this compound: CCOc1ccc(N2C(=O)CC(Sc3nc(C)cc(C)n3)C2=O)cc1 (stereo unspecified)
Completion: 3.52

Prompt: Supply reported pIC50 belonging to this compound: CC(C)c1ccc(NC(=O)CSc2nccc(-c3cccs3)n2)cc1
Completion: 4.40

Prompt: Supply reported pIC50 belonging to this compound: COc1cccc(-c2nc(SCC(=O)Nc3ccc(C(C)=O)cc3)[nH]c(=O)c2C#N)c1
Completion: 4.22

Prompt: Supply reported pIC50 belonging to this compound: COc1cccc(-c2nc(SCC(=O)Nc3ccc(S(N)(=O)=O)cc3)[nH]c(=O)c2C#N)c1
Completion: 4.40

Prompt: Supply reported pIC50 belonging to this compound: Cc1cc(O)nc(SCC(=O)Nc2cc(Cl)ccc2Oc2ccccc2)n1
Completion: 4.00

Prompt: Supply reported pIC50 belonging to this compound: COc1ccc(-c2ccnc(SCC(=O)Nc3ccc(C(C)C)cc3)n2)cc1
Completion: 3.40

Prompt: Supply reported pIC50 belonging to this compound: CCOC(=O)c1cnc(SCC(=O)Nc2ccc([N+](=O)[O-])cc2)nc1N
Completion: 3.60
